protocol_summary: chemical genetic growth profiling, strain panel (AID 1159580);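 note: tested at 20 µM; growth read once vehicle control cultures reached saturation at 30 °C; lower values mean less growth of the strain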
applied_conditions: S. cerevisiae deletion strains, growth OD, locus YDR502C, strain sam2
In all, about 5,500 compounds went through this assay and about 2,000 (36%) were called active. Inconclusive results (about 18%) are left out. Cut-off read from the data, not from the text of the source: active = normalized growth mostly below about 0.91 (no sharp cut-off); inconclusive = no clear call, values can overlap the other calls; inactive = mostly above about 0.92. This is one part of the list.
Entry note: the call must match one of active, inactive

Worked examples, 3 compounds total:
OC[C@@H](O)[C@@H](O[C@@H]1O[C@H](CO)[C@@H](O)[C@H](O)[C@H]1O)[C@H](O)[C@@H](O)CO ... inactive
Nc1ccc(S(=O)(=O)Nc2ccc(Cl)nn2)cc1 ... inactive
O=C(O)CCC(=O)C(=O)O ... inactive

**Q:** Given COC(=O)C[C@H]1C(C)(C)C(=O)[C@@H]2CC3=C4CC(=O)O[C@@H](c5ccoc5)[C@]4(C)CCC3[C@@]1(C)C2=O (some centres not stated) , state the outcome it received in this test.
**A:** inactive
